target: shed MICA004 polypeptide (human) (UniProt Q29983); assay: capture ELISA (anti-hFc / antibody / shed antigen / biotin-6D4)
MEASURE: EC50
Your reply should be a number followed by the unit it is expressed in.

[ask] Can you look up the measured EC50 of 6E1.1.12 (antibody, human IgG1, kappa, V domains shown) VH: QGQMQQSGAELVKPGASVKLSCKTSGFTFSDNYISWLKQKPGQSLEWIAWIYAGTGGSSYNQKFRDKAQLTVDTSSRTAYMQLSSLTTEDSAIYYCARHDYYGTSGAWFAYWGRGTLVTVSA VL: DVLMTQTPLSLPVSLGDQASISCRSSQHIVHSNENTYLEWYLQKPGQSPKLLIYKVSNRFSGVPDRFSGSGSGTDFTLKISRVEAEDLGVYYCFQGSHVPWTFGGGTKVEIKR for me?
[reply] 0.42 µg/mL

[ask] Can you look up the measured EC50 of #34 (antibody, V domains shown) VH: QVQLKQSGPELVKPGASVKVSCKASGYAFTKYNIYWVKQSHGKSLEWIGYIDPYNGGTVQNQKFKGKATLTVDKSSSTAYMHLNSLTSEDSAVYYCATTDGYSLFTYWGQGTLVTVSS VL: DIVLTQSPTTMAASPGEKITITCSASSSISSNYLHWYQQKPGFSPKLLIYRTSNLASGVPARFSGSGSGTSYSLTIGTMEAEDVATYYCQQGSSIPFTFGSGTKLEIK for me?
[reply] 0.46 µg/mL
